- system: T1, Clostridium difficile toxin A (TcdA) (Clostridium difficile, UniProt P16154 1-2710)
- T1 construct: mature; also called full-length TcdA
- T1 sequence (P16154 whole entry): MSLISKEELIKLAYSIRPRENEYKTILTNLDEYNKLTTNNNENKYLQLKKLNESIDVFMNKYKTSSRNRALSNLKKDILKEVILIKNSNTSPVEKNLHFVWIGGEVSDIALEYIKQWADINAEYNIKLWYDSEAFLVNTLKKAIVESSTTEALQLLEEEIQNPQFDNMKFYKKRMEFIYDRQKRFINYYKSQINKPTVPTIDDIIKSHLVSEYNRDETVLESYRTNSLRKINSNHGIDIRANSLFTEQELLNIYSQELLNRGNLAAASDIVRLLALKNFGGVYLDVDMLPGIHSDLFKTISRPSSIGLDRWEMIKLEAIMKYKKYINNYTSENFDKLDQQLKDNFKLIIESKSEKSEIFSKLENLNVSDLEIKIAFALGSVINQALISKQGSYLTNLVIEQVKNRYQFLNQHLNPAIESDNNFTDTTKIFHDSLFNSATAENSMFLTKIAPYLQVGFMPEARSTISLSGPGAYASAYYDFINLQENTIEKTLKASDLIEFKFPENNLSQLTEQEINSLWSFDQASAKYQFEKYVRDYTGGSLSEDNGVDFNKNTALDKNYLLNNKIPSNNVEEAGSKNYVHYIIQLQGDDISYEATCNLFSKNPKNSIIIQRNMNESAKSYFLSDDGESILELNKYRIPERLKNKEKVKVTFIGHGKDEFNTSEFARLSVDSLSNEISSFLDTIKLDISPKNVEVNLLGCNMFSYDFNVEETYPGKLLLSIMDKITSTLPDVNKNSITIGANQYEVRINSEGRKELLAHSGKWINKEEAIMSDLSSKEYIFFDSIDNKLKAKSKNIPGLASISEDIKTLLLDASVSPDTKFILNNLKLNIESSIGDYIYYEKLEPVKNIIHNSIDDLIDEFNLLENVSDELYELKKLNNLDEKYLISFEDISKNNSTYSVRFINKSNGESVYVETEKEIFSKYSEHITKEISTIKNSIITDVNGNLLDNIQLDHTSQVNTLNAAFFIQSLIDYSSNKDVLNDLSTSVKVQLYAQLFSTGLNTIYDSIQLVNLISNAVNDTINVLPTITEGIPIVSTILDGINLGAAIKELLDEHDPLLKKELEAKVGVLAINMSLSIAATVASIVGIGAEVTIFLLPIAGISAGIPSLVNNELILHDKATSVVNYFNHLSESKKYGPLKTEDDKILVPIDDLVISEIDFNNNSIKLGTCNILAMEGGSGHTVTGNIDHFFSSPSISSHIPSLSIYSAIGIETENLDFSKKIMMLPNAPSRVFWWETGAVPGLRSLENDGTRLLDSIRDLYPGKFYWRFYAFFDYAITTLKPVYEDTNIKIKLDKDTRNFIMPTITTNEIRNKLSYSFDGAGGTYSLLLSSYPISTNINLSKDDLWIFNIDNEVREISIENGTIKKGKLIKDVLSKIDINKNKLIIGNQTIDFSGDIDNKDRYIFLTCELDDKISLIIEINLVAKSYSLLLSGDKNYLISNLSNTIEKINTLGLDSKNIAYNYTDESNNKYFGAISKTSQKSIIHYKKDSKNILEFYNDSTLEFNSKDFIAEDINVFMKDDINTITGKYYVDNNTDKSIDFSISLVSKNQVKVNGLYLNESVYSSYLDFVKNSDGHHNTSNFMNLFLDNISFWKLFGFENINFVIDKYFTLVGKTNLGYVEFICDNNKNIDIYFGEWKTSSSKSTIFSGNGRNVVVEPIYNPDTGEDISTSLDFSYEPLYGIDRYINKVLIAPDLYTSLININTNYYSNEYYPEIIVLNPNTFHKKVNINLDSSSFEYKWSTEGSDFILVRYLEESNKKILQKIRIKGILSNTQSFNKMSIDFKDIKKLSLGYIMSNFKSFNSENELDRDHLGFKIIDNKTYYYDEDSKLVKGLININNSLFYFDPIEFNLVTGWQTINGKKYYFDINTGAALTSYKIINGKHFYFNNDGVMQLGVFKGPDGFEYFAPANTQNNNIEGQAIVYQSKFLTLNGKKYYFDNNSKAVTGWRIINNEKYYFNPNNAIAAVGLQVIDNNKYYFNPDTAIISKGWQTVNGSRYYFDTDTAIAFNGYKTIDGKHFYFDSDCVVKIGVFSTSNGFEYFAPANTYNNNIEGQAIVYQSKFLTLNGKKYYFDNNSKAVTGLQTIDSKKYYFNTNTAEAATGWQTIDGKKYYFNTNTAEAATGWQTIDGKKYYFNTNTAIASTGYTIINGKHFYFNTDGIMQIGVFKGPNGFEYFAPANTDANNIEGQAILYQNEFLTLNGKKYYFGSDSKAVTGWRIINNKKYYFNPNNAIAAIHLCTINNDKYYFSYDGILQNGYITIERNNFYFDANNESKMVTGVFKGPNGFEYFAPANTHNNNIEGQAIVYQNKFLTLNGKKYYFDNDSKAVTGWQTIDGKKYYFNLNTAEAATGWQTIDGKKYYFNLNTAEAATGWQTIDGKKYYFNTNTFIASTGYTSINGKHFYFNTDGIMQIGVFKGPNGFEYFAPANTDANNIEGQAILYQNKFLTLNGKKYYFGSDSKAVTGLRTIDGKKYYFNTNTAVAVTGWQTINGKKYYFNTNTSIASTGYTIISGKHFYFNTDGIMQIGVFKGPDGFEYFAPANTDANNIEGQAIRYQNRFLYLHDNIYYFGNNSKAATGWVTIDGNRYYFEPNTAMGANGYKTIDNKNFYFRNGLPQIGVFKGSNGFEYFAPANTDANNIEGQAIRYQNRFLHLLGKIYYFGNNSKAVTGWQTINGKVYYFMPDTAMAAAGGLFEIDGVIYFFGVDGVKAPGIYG
- assay notes: SPR (Biacore 3000), VHH over immobilized TcdA; ratio of parent KD to mutant KD
assay readout: KD^WT/KD

binder	assay readout	observed value
A26.8-T56R, Q101K (VHH, not shown: small tags and cut ends) VHH: QVKLEESGGGLVQAGGSLRLSCAASERTFSRYPVAWFRQAPGAEREFVAVISSTGRSTYYADSVKGRFTISRDNAKVTVYLQMNNLKREDTAVYFCAVNSKRTRLQDPNEYDYWGQGTQVTVSS	KD^WT/KD	4.5

Continue with the binder presented below.
# get_value(readout='KD^WT/KD', item= A26.8-T56R, Q101K, T103K (VHH, not shown: small tags and cut ends) VHH: QVKLEESGGGLVQAGGSLRLSCAASERTFSRYPVAWFRQAPGAEREFVAVISSTGRSTYYADSVKGRFTISRDNAKVTVYLQMNNLKREDTAVYFCAVNSKRKRLQDPNEYDYWGQGTQVTVSS )
5.9
